details: in n-propanol, 318.15 K

compound	solubility (mole fraction)
CC(C)C[C@H](N)C(=O)O	0.00026

====

details: in n-propanol, 283.15 K

compound	solubility (mole fraction)
CC(C)C[C@H](N)C(=O)O	9.7e-05

====

details: in acetone, 298.15 K
reported property: solubility (mole fraction)

compound	data value
CC(C)C[C@H](N)C(=O)O	8.39e-05

====

details: in n-butanol, 323.15 K

compound	solubility (mole fraction)
CC(C)C[C@H](N)C(=O)O	0.000215

====

details: in n-butanol, 293.15 K
reported property: solubility (mole fraction)

compound	data value
CC(C)C[C@H](N)C(=O)O	4.16e-05

====

details: in acetone, 323.15 K

compound	solubility (mole fraction)
CC(C)C[C@H](N)C(=O)O	0.000269

====

details: in methyl acetate, 293.15 K

compound	solubility (mole fraction)
CC(C)C[C@H](N)C(=O)O	0.000168

====

details: in methyl acetate, 303.15 K

compound	solubility (mole fraction)
CC(C)C[C@H](N)C(=O)O	0.000192

====

details: in ethanol, 283.15 K

compound	solubility (mole fraction)
CC(C)C[C@H](N)C(=O)O	0.000146

====

details: in ethyl acetate, 303.15 K

compound	solubility (mole fraction)
CC(C)C[C@H](N)C(=O)O	0.00026

====

details: in acetonitrile, 323.15 K
reported property: solubility (mole fraction)

compound	reported property	data value
CC(C)C[C@H](N)C(=O)O	solubility (mole fraction)	0.000123

====

details: in 1,4-dioxane, 288.15 K
reported property: solubility (mole fraction)

compound	data value
CC(C)C[C@H](N)C(=O)O	3.61e-05

====

details: in 1,4-dioxane, 313.15 K
reported property: solubility (mole fraction)

compound	reported property	data value
CC(C)C[C@H](N)C(=O)O	solubility (mole fraction)	0.000149

====

details: in n-propanol, 323.15 K

compound	solubility (mole fraction)
CC(C)C[C@H](N)C(=O)O	0.000316

====

details: in n-butanol, 298.15 K
reported property: solubility (mole fraction)

compound	reported property	data value
CC(C)C[C@H](N)C(=O)O	solubility (mole fraction)	5.42e-05

====

details: in acetonitrile, 318.15 K
reported property: solubility (mole fraction)

compound	data value
CC(C)C[C@H](N)C(=O)O	0.000102

====

details: in methanol, 283.15 K

compound	solubility (mole fraction)
CC(C)C[C@H](N)C(=O)O	0.000558

====

details: in acetonitrile, 283.15 K
reported property: solubility (mole fraction)

compound	reported property	data value
CC(C)C[C@H](N)C(=O)O	solubility (mole fraction)	3.87e-05

====

details: in methyl acetate, 318.15 K
reported property: solubility (mole fraction)

compound	data value
CC(C)C[C@H](N)C(=O)O	0.000254

====

details: in ethanol, 288.15 K

compound	solubility (mole fraction)
CC(C)C[C@H](N)C(=O)O	0.00015

====

details: in acetonitrile, 288.15 K

compound	solubility (mole fraction)
CC(C)C[C@H](N)C(=O)O	4.44e-05

====

details: in water, 308.15 K
reported property: solubility (mole fraction)

compound	data value
CC(C)C[C@H](N)C(=O)O	0.00358

====

details: in n-propanol, 308.15 K

compound	solubility (mole fraction)
CC(C)C[C@H](N)C(=O)O	0.000187

====

details: in ethanol, 323.15 K
reported property: solubility (mole fraction)

compound	reported property	data value
CC(C)C[C@H](N)C(=O)O	solubility (mole fraction)	0.00034

====

details: in methyl acetate, 313.15 K

compound	solubility (mole fraction)
CC(C)C[C@H](N)C(=O)O	0.000227

====

details: in n-butanol, 303.15 K

compound	solubility (mole fraction)
CC(C)C[C@H](N)C(=O)O	7.83e-05

====

details: in acetonitrile, 313.15 K

compound	solubility (mole fraction)
CC(C)C[C@H](N)C(=O)O	8.6e-05

====

details: in ethanol, 313.15 K
reported property: solubility (mole fraction)

compound	data value
CC(C)C[C@H](N)C(=O)O	0.000221

====

details: in methanol, 298.15 K

compound	solubility (mole fraction)
CC(C)C[C@H](N)C(=O)O	0.000686

====

details: in water, 283.15 K
reported property: solubility (mole fraction)

compound	data value
CC(C)C[C@H](N)C(=O)O	0.00322

====

details: in isobutanol, 313.15 K
reported property: solubility (mole fraction)

compound	reported property	data value
CC(C)C[C@H](N)C(=O)O	solubility (mole fraction)	0.000254

====

details: in acetone, 288.15 K
reported property: solubility (mole fraction)

compound	reported property	data value
CC(C)C[C@H](N)C(=O)O	solubility (mole fraction)	4.52e-05

====

details: in isobutanol, 283.15 K

compound	solubility (mole fraction)
CC(C)C[C@H](N)C(=O)O	0.000152

====

details: in acetone, 318.15 K
reported property: solubility (mole fraction)

compound	reported property	data value
CC(C)C[C@H](N)C(=O)O	solubility (mole fraction)	0.000218

====

details: in isopropanol, 288.15 K

compound	solubility (mole fraction)
CC(C)C[C@H](N)C(=O)O	0.00016

====

details: in methanol, 293.15 K
reported property: solubility (mole fraction)

compound	reported property	data value
CC(C)C[C@H](N)C(=O)O	solubility (mole fraction)	0.000655

====

details: in n-butanol, 283.15 K

compound	solubility (mole fraction)
CC(C)C[C@H](N)C(=O)O	2.59e-05

====

details: in 1,4-dioxane, 303.15 K

compound	solubility (mole fraction)
CC(C)C[C@H](N)C(=O)O	9.39e-05

====

details: in isobutanol, 288.15 K

compound	solubility (mole fraction)
CC(C)C[C@H](N)C(=O)O	0.000157

====

details: in isobutanol, 323.15 K

compound	solubility (mole fraction)
CC(C)C[C@H](N)C(=O)O	0.00035

====

details: in water, 288.15 K

compound	solubility (mole fraction)
CC(C)C[C@H](N)C(=O)O	0.00326

====

details: in isobutanol, 318.15 K

compound	solubility (mole fraction)
CC(C)C[C@H](N)C(=O)O	0.000304

====

details: in isopropanol, 298.15 K

compound	solubility (mole fraction)
CC(C)C[C@H](N)C(=O)O	0.000187

====

details: in acetone, 303.15 K
reported property: solubility (mole fraction)

compound	data value
CC(C)C[C@H](N)C(=O)O	0.00011

====

details: in n-butanol, 308.15 K
reported property: solubility (mole fraction)

compound	reported property	data value
CC(C)C[C@H](N)C(=O)O	solubility (mole fraction)	0.000103

====

details: in methyl acetate, 283.15 K
reported property: solubility (mole fraction)

compound	data value
CC(C)C[C@H](N)C(=O)O	0.000158

====

details: in 1,4-dioxane, 318.15 K
reported property: solubility (mole fraction)

compound	data value
CC(C)C[C@H](N)C(=O)O	0.00019

====

details: in isopropanol, 308.15 K
reported property: solubility (mole fraction)

compound	data value
CC(C)C[C@H](N)C(=O)O	0.000254

====

details: in ethyl acetate, 288.15 K

compound	solubility (mole fraction)
CC(C)C[C@H](N)C(=O)O	0.000169

====

details: in acetone, 293.15 K

compound	solubility (mole fraction)
CC(C)C[C@H](N)C(=O)O	6.31e-05

====

details: in acetonitrile, 303.15 K

compound	solubility (mole fraction)
CC(C)C[C@H](N)C(=O)O	6.68e-05

====

details: in n-butanol, 313.15 K
reported property: solubility (mole fraction)

compound	data value
CC(C)C[C@H](N)C(=O)O	0.000129

====

details: in methyl acetate, 308.15 K

compound	solubility (mole fraction)
CC(C)C[C@H](N)C(=O)O	0.000211

====

details: in acetone, 308.15 K

compound	solubility (mole fraction)
CC(C)C[C@H](N)C(=O)O	0.000145

====

details: in methanol, 313.15 K

compound	solubility (mole fraction)
CC(C)C[C@H](N)C(=O)O	0.000896

====

details: in n-propanol, 303.15 K

compound	solubility (mole fraction)
CC(C)C[C@H](N)C(=O)O	0.000163

====

details: in ethanol, 293.15 K

compound	solubility (mole fraction)
CC(C)C[C@H](N)C(=O)O	0.000156

====

details: in ethyl acetate, 283.15 K

compound	solubility (mole fraction)
CC(C)C[C@H](N)C(=O)O	0.000156

====

details: in water, 298.15 K
reported property: solubility (mole fraction)

compound	reported property	data value
CC(C)C[C@H](N)C(=O)O	solubility (mole fraction)	0.00339

====

details: in water, 323.15 K

compound	solubility (mole fraction)
CC(C)C[C@H](N)C(=O)O	0.00404

====

details: in isopropanol, 313.15 K
reported property: solubility (mole fraction)

compound	reported property	data value
CC(C)C[C@H](N)C(=O)O	solubility (mole fraction)	0.000271

====

details: in methyl acetate, 288.15 K

compound	solubility (mole fraction)
CC(C)C[C@H](N)C(=O)O	0.000162
